Origin of values: PubChem BioAssay (NCATS)

Please provide measured Z-AUC for the entries that follow.
# test: qHTS drug screen for cell cycle checkpoint inhibitors in PARPi-resistant BRCA-mutant ovarian cancer cell lines. (AID 1963452)
# assay-context: PEO1/OlaR viability, CellTiter-Glo luminescence, 96 h; hits give low values
The response must contain the number and no unit.

query: Given CCC1CCCCN1C(=O)n1ncc(C(O)(c2ccccc2)c2ccccc2)n1 (stereo not given) , respond with its Z-AUC.
result: 0.1

query: Given CN(C)CCNC(=O)NC[C@H]1CC[C@@H]2[C@H](O1)c1cc(C(F)(F)F)ccc1N[C@H]2c1ccccc1 , respond with its Z-AUC.
result: -0.264

query: Given O=C(CCNC(=O)c1ccc(OC(F)(F)F)cc1)N[C@@H]1CCCc2ccccc21 , respond with its Z-AUC.
result: 1.15

query: Given C[C@H](NC(=O)[C@H]1NCC[C@@H]1O)c1ccc(-c2noc(CCC3CCCC3)n2)cc1 , respond with its Z-AUC.
result: 0.833

query: Given CN(Cc1ccc(/C=C/C(=O)NO)cc1)CC12CC3CC(CC(C3)C1)C2 , respond with its Z-AUC.
result: -0.476
